# Test system: Haemophilus parainfluenzae
# measurementNotes: growth AUC normalised to DMSO control (fraction of control); higher = less growth inhibition, active = hit call of the paper
# details: 20 µM
endpointName: growth AUC normalised to DMSO control
Give bare numbers.

Working through the 2 molecules below one at a time, give growth AUC normalised to DMSO control for each.
1. Cc1ccc(-c2cc(C(F)(F)F)nn2-c2ccc(S(N)(=O)=O)cc2)cc1
2. CS(=O)(=O)c1ccc([C@@H](O)[C@@H](CO)NC(=O)C(Cl)Cl)cc1

Reply |
[0.85, 0.032]

###

Exercise: state measured growth AUC normalised to DMSO control for each of the compounds provided.
# System: S. enterica typhimurium tolC KO
# measurementNotes: growth AUC normalised to DMSO control (median) (fraction of control); higher = less growth inhibition, active = hit call of the paper
# details: 20 µM
Counter-ions that a name gives are not always drawn.
Answers are plain numbers.

Some solved entries appear below for comparison.
CCCN1C[C@H](CSC)C[C@@H]2c3cccc4[nH]cc(c34)C[C@H]21 [Pergolide mesylate] :: 0.974
Oc1cc(Cl)ccc1Oc1ccc(Cl)cc1Cl :: 0.00694
NCC(O)c1ccc(O)cc1 (centres undefined) [Octopamine hydrochloride] :: 1.03

Consider the additional compound presented here.
Ask | Bench note: what growth AUC normalised to DMSO control did `C[C@]12CC[C@H](O)C[C@H]1CC[C@@H]1[C@@H]2CC[C@]2(C)[C@@H](C3=CC(=O)OC3)CC[C@]12O` show?
Reply | 1

###

# Tested on: Vibrio cholerae
# measurementNotes: growth AUC normalised to DMSO control (fraction of control); higher = less growth inhibition, active = hit call of the paper
# details: 20 µM
Counter-ions that a name gives are not always drawn.
Exercise: state measured growth AUC normalised to DMSO control for each of the molecules provided.
One number for each entry.

Some solved entries appear below for comparison.
Oc1ccc2c3c1O[C@H]1[C@@H](O)CC[C@@]4(O)[C@@H](C2)N(CC2CCC2)CC[C@]314 [Nalbuphine hydrochloride] :: 0.984
CN1[C@@H]2CC[C@H]1C[C@@H](OC1c3ccccc3CCc3ccccc31)C2 [Deptropine citrate] :: 0.926
COc1cc([C@@H]2c3cc4c(cc3[C@H](O)[C@H]3COC(=O)[C@H]23)OCO4)cc(OC)c1OC :: 1.02
CCOC(=O)c1cncn1[C@H](C)c1ccccc1 [Etomidate] :: 1.03
COc1cccc(C2(O)CCCCC2CN(C)C)c1 (stereo not drawn) [Tramadol hydrochloride] :: 0.983
CCC(=O)O[C@@](Cc1ccccc1)(c1ccccc1)[C@@H](C)CN(C)C [Levopropoxyphene napsylate] :: 1
CN1C[C@H](CNC(=O)OCc2ccccc2)C[C@@H]2c3cccc4c3c(cn4C)C[C@H]21 :: 0.893

Ask | // map `NCC1(CC(=O)O)CCCCC1` to recorded growth AUC normalised to DMSO control (system: Vibrio cholerae)
Reply | 1.03

###

# Test system: Haemophilus parainfluenzae
# measurementNotes: growth AUC normalised to DMSO control (fraction of control); higher = less growth inhibition, active = hit call of the paper
# details: 20 µM
Counter-ions that a name gives are not always drawn.
Exercise: state measured growth AUC normalised to DMSO control for each of the compounds provided.
Give bare numbers.

Some solved entries appear below for comparison.
C[C@@H]1C[C@H]2[C@@H]3C[C@H](F)C4=CC(=O)C=C[C@]4(C)[C@@]3(F)[C@@H](O)C[C@]2(C)[C@@]1(O)C(=O)CO :: 1
CN1CCCN=C1/C=C/c1cccs1 [Pyrantel tartrate] :: 0.978
CN1[C@@H]2CC[C@H]1C[C@@H](OC(=O)[C@H](CO)c1ccccc1)C2 :: 0.945
O=C1CN(/N=C/c2ccc([N+](=O)[O-])o2)C(=O)N1 :: 0.369
CCc1c(C)[nH]c2c1C(=O)C(CN1CCOCC1)CC2 (centres undefined) [Molindone hydrochloride] :: 1.01
CN(C/C=C/c1ccccc1)Cc1cccc2ccccc12 [Naftifine hydrochloride] :: 0.977

Working through the 4 compounds below one at a time, give growth AUC normalised to DMSO control for each.
1. C1CCC(C(CC2CCCCN2)C2CCCCC2)CC1 (centres undefined) [Perhexiline maleate]
2. CCOC(=O)O[C@]1(C(=O)COC(=O)CC)CC[C@H]2[C@@H]3CCC4=CC(=O)C=C[C@]4(C)[C@H]3[C@@H](O)C[C@@]21C [Prednicarbate]
3. CN(C)CCC=C1c2ccccc2CCc2ccccc21 [Amitryptiline hydrochloride]
4. CN1CCN(C(c2ccccc2)c2ccccc2)CC1 [Cyclizine hydrochloride]

Reply |
[0.977, 1.16, 0.958, 0.995]

###

# Test system: Haemophilus parainfluenzae
# measurementNotes: growth AUC normalised to DMSO control (fraction of control); higher = less growth inhibition, active = hit call of the paper
# details: 20 µM
Where a name gives a salt, the structure may show the parent alone.
endpointName: growth AUC normalised to DMSO control
Give bare numbers.

CCN(Cc1ccncc1)C(=O)C(CO)c1ccccc1 (configuration not stated) [Tropicamide] :: 0.816
O=C(CCCN1CCC2(CC1)C(=O)NCN2c1ccccc1)c1ccc(F)cc1 :: 0.953

Working through the 6 compounds below one at a time, give growth AUC normalised to DMSO control for each.
1. CCc1oc2ccccc2c1C(=O)c1cc(Br)c(O)c(Br)c1
2. CC(=O)CCCCn1c(=O)c2c(ncn2C)n(C)c1=O
3. O=C(OCCOCCO)c1ccccc1Nc1cccc(C(F)(F)F)c1 [Etofenamate]
4. CCN1CCC[C@H]1CNC(=O)c1c(O)c(Cl)cc(Cl)c1OC [Raclopride]
5. Nc1ccc(S(=O)(=O)Nc2nccs2)cc1
6. NS(=O)(=O)c1cc2c(cc1C(F)(F)F)NCNS2(=O)=O [Hydroflumethiazide]

Reply |
0.987
1.01
0.992
0.944
1.03
0.991

Working through the 4 compounds below one at a time, give growth AUC normalised to DMSO control for each.
1. COc1cc2ncnc(Nc3ccc(F)c(Cl)c3)c2cc1OCCCN1CCOCC1
2. O=P(O)(O)C(Cl)(Cl)P(=O)(O)O [Clodronate disodium]
3. NCc1ccc(S(N)(=O)=O)cc1 [Mafenide hydrochloride]
4. Cc1cccc(CN2CCN(C(c3ccccc3)c3ccc(Cl)cc3)CC2)c1 (configuration not stated) [Meclozine dihydrochloride]

Reply |
1: 0.971; 2: 0.965; 3: 1; 4: 0.948

Working through the 5 compounds below one at a time, give growth AUC normalised to DMSO control for each.
1. CCCCNc1ccc(C(=O)OCCOCCOCCOCCOCCOCCOCCOCCOCCOC)cc1 [Benzonatate]
2. CC(=O)O[C@H]1C[C@@H]2CC[C@@H]3[C@H](CC[C@@]4(C)[C@H]3C[C@H]([N+]3(C)CCCCC3)[C@@H]4OC(C)=O)[C@@]2(C)C[C@@H]1N1CCCCC1 [Vecuronium bromide]
3. CCC1=C(C)CN(C(=O)NCCc2ccc(S(=O)(=O)NC(=O)N[C@H]3CC[C@H](C)CC3)cc2)C1=O [Glimepiride]
4. Oc1ccc2c3c1O[C@H]1[C@@H](O)CC[C@@]4(O)[C@@H](C2)N(CC2CCC2)CC[C@]314 [Nalbuphine hydrochloride]
5. N[C@@H](Cc1cc(I)c(Oc2cc(I)c(O)c(I)c2)c(I)c1)C(=O)O

Reply |
1: 1; 2: 1.05; 3: 1.02; 4: 0.982; 5: 0.96

###

# Test system: S. enterica typhimurium WT
# measurementNotes: growth AUC normalised to DMSO control (median) (fraction of control); higher = less growth inhibition, active = hit call of the paper
# details: 20 µM
Structures can show the parent of a compound that is named as a salt.
endpointName: growth AUC normalised to DMSO control
One number for each entry.

Some solved entries appear below for comparison.
CO[C@]12C[C@@H](COC(=O)c3cncc(Br)c3)CN(C)[C@@H]1Cc1cn(C)c3cccc2c13 :: 1
COc1ccc2c(c1)[C@]13CCCC[C@@H]1[C@H](C2)N(C)CC3 [Dextromethorphan hydrobromide monohydrate] :: 0.995
N#Cc1nn(-c2c(Cl)cc(C(F)(F)F)cc2Cl)c(N)c1[S+]([O-])C(F)(F)F (stereo not drawn) :: 1.01
C[C@]12CC[C@@H]3c4ccc(OC(=O)N(CCCl)CCCl)cc4CC[C@H]3[C@@H]1CC[C@@H]2O :: 1
C1CCc2nnnn2CC1 :: 1

Working through the 3 molecules below one at a time, give growth AUC normalised to DMSO control for each.
1. O=P1(N(CCCl)CCCl)NCCCO1 (stereo not drawn) [Cyclophosphamide]
2. CC(=O)OCC(=O)[C@H]1CC[C@H]2[C@@H]3CC[C@H]4C[C@H](O)CC[C@]4(C)[C@H]3C(=O)C[C@]12C [Alfadolone acetate]
3. NCC(CC(=O)O)c1ccc(Cl)cc1 (stereo not drawn)

Reply |
1.01
1.01
1.02

###

# Test system: Salmonella enterica typhimurium
# measurementNotes: growth AUC normalised to DMSO control (fraction of control); higher = less growth inhibition, active = hit call of the paper
# details: 20 µM
Counter-ions that a name gives are not always drawn.
Exercise: state measured growth AUC normalised to DMSO control for each of the compounds provided.
Answers are plain numbers.

Some solved entries appear below for comparison.
COc1ccc(CCN2CCC(Nc3nc4ccccc4n3Cc3ccc(F)cc3)CC2)cc1 :: 1.05
COc1cc([C@@H]2c3cc4c(cc3[C@H](O)[C@H]3COC(=O)[C@H]23)OCO4)cc(OC)c1OC :: 0.999
CC(C)[N+](C)(CCC(C(N)=O)(c1ccccc1)c1ccccc1)C(C)C [Isopropamide iodide] :: 0.998
CC(=O)OCC1=C(C(=O)O)N2C(=O)[C@@H](N)[C@H]2SC1 :: 0.999
Oc1ccc2c3c1O[C@H]1[C@@H](O)CC[C@@]4(O)[C@@H](C2)N(CC2CCC2)CC[C@]314 [Nalbuphine hydrochloride] :: 0.984

Working through the 2 compounds below one at a time, give growth AUC normalised to DMSO control for each.
1. CCN(CC)C(C)C(=O)c1ccccc1 (configuration not stated) [Amfepramone hydrochloride]
2. C[N+]1(C)CCOC(O)(c2ccc(-c3ccc(C4(O)C[N+](C)(C)CCO4)cc3)cc2)C1 (configuration not stated) [Hemicholinium bromide]

Reply |
[0.995, 1]
